The measured values listed here are drawn from ChEMBL document CHEMBL5120896.

tested on: SW-620; assay: Cytotoxicity against human SW-620 cells assessed as reduction in metabolically active cells by MTT assay; assay type: functional, cell-based
pIC50: −log10 of the molar value.
Recorded metric: pIC50

# Structure smiles string, Endpoint value
measured = [
    ("COC1=CC(=O)c2c(cc3c(c2O)[C@H](O)[C@@H](O)[C@@](C)(O)C3)C1=O", 4.86),
]

---

test system: RAW264.7; experiment: Cytotoxicity against mouse RAW264.7 cells assessed as reduction in cell viability at 80 uM incubated for 24 hrs by MTT assay; type: toxicity, cell-based; conditions: raw264.7, 24 h
Recorded metric: Activity

# Structure smiles string, Recorded metric, Endpoint value
rows = [
    ("COc1cc(O)c2c(c1O)[C@H](O)[C@H]1C[C@](C)(O)C[C@@H](O)[C@@H]1C2=O", "Activity", "Toxic"),
    ("COC1=CC(=O)c2c(cc3c(c2O)[C@H](O)[C@@H](O)[C@@](C)(O)C3)C1=O", "Activity", "Toxic"),
    ("COc1cc(O)c2c(c1O)[C@H](OC)[C@H]1C[C@](C)(O)[C@H](O)[C@@H](O)[C@H]1C2=O", "Activity", "Toxic"),
]
